Tested on: Fibroblast
method_notes: Incucyte cell viability with human fibroblast; note: unitless GR value; below 1 slowed growth and below 0 cell loss
Format: toxicity, cell-based
experimental_conditions: 24 h, 10 µM, compound concentration 10 uM, replicate number 1
Values of Growth Rate greater than or equal to 0.5 map to True; values below map to False.

Fc1cccc(-n2cnc3c(NCc4nc5ccc(F)c(F)c5[nH]4)nc(N4CCOCC4)nc32)c1
False
CC(C)(C#Cc1ccc(NC(=O)COc2ccccc2C(=O)c2ccccc2)c(Cl)c1)C(=O)O
True
O=C(N[C@@H]1C2CCN(CC2)[C@H]1Cc1cccnc1)c1cc2ccccc2o1
True
COP(=O)(CCC(N)C(=O)O)Oc1cccc(CC(=O)O)c1 (centres undefined)
True
CCOC(=O)c1ccc(CN(Cc2ccc(-c3cccc(S(C)(=O)=O)c3)cc2)S(=O)(=O)c2c(C)cc(C)cc2C)o1
True
CC(C)(C)OC(=O)CN(Cc1ccc(Cl)cc1)Cc1ccc([N+](=O)[O-])s1
True
O=C(Nc1ccc(-n2nc(C(F)(F)F)cc2C(F)(F)F)cc1)c1ccncc1F
True
O=C(Nc1ccccc1Br)N[C@@H]1CCN(c2ccc(C(F)(F)F)cn2)C1
False

*Q* Has CC(N)C1CCC(C(=O)Nc2ccncc2)CC1 (centres undefined) a recorded Growth Rate greater than or equal to 0.5?
*A* True

*Q* Determine whether this compound has Growth Rate no lower than 0.5: COC(=O)c1ccc2c(c1)NC(=O)/C2=C(\Nc1ccc(N(C)C(=O)CN2CCN(C)CC2)cc1)c1ccccc1
*A* False

*Q* Evaluate Cc1cc(Cn2c(N3CC4(CNC4)C3)nc3cc(Cl)cc(N4CCN(C)CC4)c32)cc(C)c1F : Growth Rate at minimum 0.5?
*A* False

====

Test system: Fibroblast
method_notes: Incucyte cell viability with human fibroblast; note: unitless GR value; below 1 slowed growth and below 0 cell loss
Type: toxicity, cell-based
experimental_conditions: 18 h, 10 µM, compound concentration 10 uM, replicate number 2
assay_endpoint: Growth Rate
API note: the answer field is a bare number with no unit suffix.

Examples with their reported Growth Rate follow.
O=C(O)CCn1c2c(c3ccccc31)C[C@H](NS(=O)(=O)c1ccc(F)cc1)CC2 [RAMATROBAN]
0.89
COCCc1ccc(-c2c(C)nc3c(N4CCOCC4)ccnn23)cn1 [JNJ-42396302]
0.84
CC(C)(O)c1cn(-c2ccc(-c3cccc(S(C)(=O)=O)c3)cc2)c(C(C)(C)c2ccccc2Cl)n1 [BMS-779788]
0.78

*Q* Please look at this compound and report its Growth Rate: COc1cc2c(NC3CCN(C(C)C)CC3)nc(C3CCCCC3)nc2cc1OCCCN1CCCC1
*A* -0.46

====

System: HEK-293T
method_notes: Incucyte cell viability with HEK293T; note: unitless GR value; below 1 slowed growth and below 0 cell loss
Assay type: toxicity, cell-based
experimental_conditions: human, 24 h, 10 µM, compound concentration 10 uM, replicate number 1
1 (yes) if Growth Rate is below 0.9. 0 (no) if not; exact matches included in 0 (no).

Cc1nsc(Nc2cnc(C(F)(F)F)cn2)c1C(=O)Nc1ccc(O[C@H]2CCCN(CC(F)(F)F)C2)nc1
1 (yes)

*Q* Does the reported Growth Rate of the following compound sit strictly below 0.9? CCCCCNC(=O)N1CCC(CN(Cc2ccc(Cl)cc2)Cc2ccc([N+](=O)[O-])s2)C1 (configuration not stated) [SR9011]
*A* 1 (yes)

*Q* Is Growth Rate strictly under 0.9 for the entry N#CN1CC[C@@H](C(=O)Nc2nc3c(s2)CN(C(=O)CN=[N+]=[N-])CC3)C1 [JYQ88] ?
*A* 0 (no)

*Q* Criterion: Growth Rate strictly below 0.9. Is it met by O=C(NNC(=O)c1ccc(CNS(=O)(=O)c2ccc(F)c(Cl)c2)cc1)c1ccccc1 ?
*A* 1 (yes)

*Q* Lab log: compare recorded Growth Rate with 0.9; is it strictly lower for CC(C)(O)c1cnc(N2C[C@@]3(CCC[C@](C)(Cn4cnc5ccc(C#N)cc54)C3)OC2=O)cn1 [GSK2798745] ?
*A* 1 (yes)

*Q* In the record for CC(C)(O)CNC(=O)N1C(=O)N(c2cccc(C(F)(F)F)c2)C2=C(C(=O)CC2)[C@H]1c1ccc(C#N)cc1 , is Growth Rate less than 0.9?
*A* 0 (no)

*Q* Is Growth Rate strictly under 0.9 for the entry CC1(C)CCC(CN2CCN(c3ccc(C(=O)NS(=O)(=O)c4ccc(NCC5CCOCC5)c([N+](=O)[O-])c4)c(Oc4cnc5[nH]ccc5c4)c3)CC2)=C(c2ccc(Cl)cc2)C1 [VENETOCLAX] ?
*A* 1 (yes)
